// data source = patent US20250368745A1

- system name: T1, cynomolgus IL-18BP (cynomolgus monkey)
- T1 construct: also called cyno IL-18BP; cyIL-18BP
- T1 chain: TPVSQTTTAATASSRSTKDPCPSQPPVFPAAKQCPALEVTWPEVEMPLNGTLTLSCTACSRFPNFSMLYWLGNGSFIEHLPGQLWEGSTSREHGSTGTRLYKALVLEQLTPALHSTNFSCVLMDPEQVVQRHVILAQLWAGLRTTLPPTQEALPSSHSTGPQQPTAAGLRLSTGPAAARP
- assay remarks: BLI, apparent KD
pKd: −log10 of the molar value.
Below: a set of entries, each annotated with reported pKd.
property label: pKd

{"binder": "SA301a HC-N100bQ (antibody, name in Kabat numbering, V domains shown, IgG1 kappa) VH: QVQLQESGPGLVKPSQTLSLTCTVSGYSITSDYNSHWIRQPPGKGLEWIGYIHYSGSTNYNPSLKSRVTISRDTSKNQFSLKLSSVTAADTAVYYCARNYGSIYVQYFDYWGQGTLVTVSS VL: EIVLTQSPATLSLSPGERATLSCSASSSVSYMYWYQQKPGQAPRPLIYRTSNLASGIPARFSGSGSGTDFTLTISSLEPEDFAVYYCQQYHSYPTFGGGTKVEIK", "val": 9.38}
{"binder": "SA301a HC-Y100M (antibody, V domains shown) VH: QVQLQESGPGLVKPSQTLSLTCTVSGYSITSDYNSHWIRQPPGKGLEWIGYIHYSGSTNYNPSLKSRVTISRDTSKNQFSLKLSSVTAADTAVYYCARNYGSIMVNYFDYWGQGTLVTVSS VL: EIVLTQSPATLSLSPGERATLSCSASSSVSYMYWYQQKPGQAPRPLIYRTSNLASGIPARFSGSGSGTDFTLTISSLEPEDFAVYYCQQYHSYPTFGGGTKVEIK", "val": 8.64}
{"binder": "SA301a HC-N100bE (antibody, name in Kabat numbering, V domains shown, IgG1 kappa) VH: QVQLQESGPGLVKPSQTLSLTCTVSGYSITSDYNSHWIRQPPGKGLEWIGYIHYSGSTNYNPSLKSRVTISRDTSKNQFSLKLSSVTAADTAVYYCARNYGSIYVEYFDYWGQGTLVTVSS VL: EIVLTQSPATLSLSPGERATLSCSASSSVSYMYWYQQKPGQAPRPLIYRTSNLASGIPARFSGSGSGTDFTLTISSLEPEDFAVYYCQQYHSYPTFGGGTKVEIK", "val": 9.04}
